For each entry below, report its Activity value.
Target: Glutamate NMDA receptor; Grin1/Grin2b (Rattus norvegicus) (UniProt P35439+Q00960)
Test: Negative allosteric modulation of rat GluN1/GluN2B expressed in Xenopus laevis oocytes assessed as inhibition of L-glutamate/glycine-induced current response at holding potential -60 mV by two-electrode voltage clamp method relative to untreated control
Assay type: cell-based
Design: concentration or dose not given beside the values
The response must be a number in % with no trailing unit.

Fill in the recorded Activity for this molecule, with Glutamate NMDA receptor; Grin1/Grin2b (Rattus norvegicus) (UniProt P35439+Q00960) as test system: O=C(O)c1cc2cc(/C=C/c3ccccc3[N+](=O)[O-])ccc2cc1O
61.3

// fetch Glutamate NMDA receptor; Grin1/Grin2b (Rattus norvegicus) (UniProt P35439+Q00960) Activity for O=C(O)c1cc2cc(-c3ccccc3)ccc2cc1O
56.8

Give Activity (Glutamate NMDA receptor; Grin1/Grin2b (Rattus norvegicus) (UniProt P35439+Q00960)) of the following molecule: O=C(O)c1cc2cc(/C=C/c3ccccc3)ccc2cc1O
93.9

I'm curious: which Activity was measured for O=C(O)c1cc2cc(/C=C/c3cccc([N+](=O)[O-])c3)ccc2cc1O tested on Glutamate NMDA receptor; Grin1/Grin2b (Rattus norvegicus) (UniProt P35439+Q00960)?
66.3

Any idea what Activity came out for O=C(O)c1cc2cc(/C=C/c3ccc([N+](=O)[O-])cc3)ccc2cc1O on Glutamate NMDA receptor; Grin1/Grin2b (Rattus norvegicus) (UniProt P35439+Q00960)?
48.4
